Tested on: 786-0 renal
Experiment: NCI-60 one-dose screen, 48 h
Conditions: 10 µM unless noted
About 83,000 compounds went through this panel and 20% of them were active in at least one assay; those are over-represented in the sample as a whole. Active and inactive are the calls of the source. Rule for the calls: active = growth percent below 10; inactive = the rest.
Give one outcome, nothing more. List: active, inactive

Request: Just curious, what result did CCN1CCN(Cc2ccc(C(=O)Nc3cccc(Nc4ccc5c(OC)cccc5n4)c3)cc2C(F)(F)F)CC1 get here?
Result: active

Request: Check COc1cc(CNC(=O)C[C@H](C)CCC=C(C)C)ccc1OCc1cn(-c2ccc(Cl)c(Cl)c2)nn1 too.
Result: inactive

Request: Check Nc1nn2c(-c3cc4ccccc4oc3=O)ccnc2c1N=Nc1ccccc1 too.
Result: inactive

Request: Check O=C1c2cccc3c(N4CCN(c5ccccc5)CC4)ccc(c23)C(=O)N1c1cccc(-c2nn(-c3ccccc3)cc2-c2nc3ccccc3s2)c1 too.
Result: inactive

Request: Check CCOc1ccc(-c2cc(-c3cc(C(C)C)c(O)cc3C)nn2-c2ccc(S(N)(=O)=O)cc2)cc1 too.
Result: inactive

Request: Check Cc1nc2sccn2c1-c1nnc(SCC(C)C)o1 too.
Result: inactive

Request: Check CNS(=O)(=O)N1CCc2c(Br)c3c(c(OC)c2C1CCc1ccccc1)OCO3 (centres undefined) too.
Result: active

Request: Check CN1CCc2c(sc3ncnc(N/N=C/c4cccc(Cl)c4Cl)c23)C1 too.
Result: active

Request: Check C=CCSc1nnc(-c2ccc(-c3nc4ccc(Cl)cc4[nH]3)cc2)o1 too.
Result: inactive
